Test system: K562 CRISPRi cells
Test: Perturb-seq pooled growth measurement (sgRNA counts, growth phenotype γ, relative activity)
Assay type: cell-based, human
Details: sequencing read counts; 10 days of growth (day twelve after transduction)
Please use t whenever Perturb-seq pooled growth sgRNA counts, d10 is not below 3000, and f whenever it is.

substance	qualitativeLabel
ATP5E_−_57607036.23-P1P2_04: sgRNA targeting ATP5E, GGTGTCCAGGAGCACTCTGT, SEQ ID NO: 154 (listed as DNA, chemistry not fully specified)	t
RPS15_−_1438413.23-P1P2_00: sgRNA targeting RPS15, GACCAAAGCGATCTCTTCTG, SEQ ID NO: 60 (listed as DNA, chemistry not fully specified)	t
POLR1D_+_28196016.23-P1_03: sgRNA targeting POLR1D, GGTAAGCAAGGACCGACCGA, SEQ ID NO: 75 (listed as DNA, chemistry not fully specified)	f

Does the substance CDC23_−_137548987.23-P1P2_02: sgRNA targeting CDC23, GACAGCTACCGGGACCATGG, SEQ ID NO: 98 (listed as DNA, chemistry not fully specified) have recorded Perturb-seq pooled growth sgRNA counts, d10 that is 3000 or more? f

Has non-targeting_00406: non-targeting negative control sgRNA, GGCGCCGGACTGGACCTCGA, SEQ ID NO: 167 (listed as DNA, chemistry not fully specified) [reference compound] a recorded Perturb-seq pooled growth sgRNA counts, d10 greater than or equal to 3000? t

Tell me whether Perturb-seq pooled growth sgRNA counts, d10 is at least 3000 here: EIF2S1_−_67827080.23-P1P2_07: sgRNA targeting EIF2S1, GAGCGAAGCGCTCGCTGAGG, SEQ ID NO: 140 (listed as DNA, chemistry not fully specified) t

Is Perturb-seq pooled growth sgRNA counts, d10 at least 3000? Consider COX11_+_53045977.23-P1P2_10: sgRNA targeting COX11, GGCTCTGGCGTCCCGGATGG, SEQ ID NO: 145 (listed as DNA, chemistry not fully specified) t

Evaluate CAD_+_27440280.23-P1P2_00: sgRNA targeting CAD, GGCTGGAGAGAAGCCGGGCG, SEQ ID NO: 20 (listed as DNA, chemistry not fully specified) : Perturb-seq pooled growth sgRNA counts, d10 at minimum 3000? f

In plain terms: is recorded Perturb-seq pooled growth sgRNA counts, d10 at least 3000 for SEC61A1_−_127771295.23-P1_02: sgRNA targeting SEC61A1, GGCGCTGACGTGTCTCTCGG, SEQ ID NO: 84 (listed as DNA, chemistry not fully specified) ? t

Could you verify whether the entry non-targeting_00028: non-targeting negative control sgRNA, GGTGGCCTTTGCAATTGGCG, SEQ ID NO: 162 (listed as DNA, chemistry not fully specified) [reference compound] shows Perturb-seq pooled growth sgRNA counts, d10 of no less than 3000? t

Hi, just wondering whether POLR1D_+_28196016.23-P1_01: sgRNA targeting POLR1D, GGGAAGCCAGGACCGACCGA, SEQ ID NO: 76 (listed as DNA, chemistry not fully specified) shows Perturb-seq pooled growth sgRNA counts, d10 of 3000 or higher. f

Quick check, Perturb-seq pooled growth sgRNA counts, d10 >= 3000? MTOR_+_11322547.23-P1P2_05: sgRNA targeting MTOR, GGGCAGGGGGCTTGAAGCGG, SEQ ID NO: 148 (listed as DNA, chemistry not fully specified) t

Confirm if Perturb-seq pooled growth sgRNA counts, d10 reported for the substance BCR_+_23523092.23-P1P2_04: sgRNA targeting BCR, GCGCGCGGAGCCCGTCTCAG, SEQ ID NO: 127 (listed as DNA, chemistry not fully specified) is 3000 or above. f

Exam item: decide whether the reported Perturb-seq pooled growth sgRNA counts, d10 for EIF2S1_−_67827080.23-P1P2_01: sgRNA targeting EIF2S1, GAGCGAAACGCACGCTGAGG, SEQ ID NO: 139 (listed as DNA, chemistry not fully specified) is at least 3000. t

Please check the record SEC61A1_−_127771295.23-P1_00: sgRNA targeting SEC61A1, GGCACTGACGTGTCTCTCGG, SEQ ID NO: 83 (listed as DNA, chemistry not fully specified) and state if its Perturb-seq pooled growth sgRNA counts, d10 is at or above 3000. f

Threshold query (Perturb-seq pooled growth sgRNA counts, d10 >= 3000) on RPL9_+_39460483.23-P1P2_01: sgRNA targeting RPL9, GGATGATTCTGTGCTCGTGG, SEQ ID NO: 51 (listed as DNA, chemistry not fully specified) f

Hi, just wondering whether RPS18_+_33239917.23-P1P2_08: sgRNA targeting RPS18, GCTGCGATTCCGCTGGATCA, SEQ ID NO: 43 (listed as DNA, chemistry not fully specified) shows Perturb-seq pooled growth sgRNA counts, d10 of 3000 or higher. t

Test whether the substance HSPE1_+_198365089.23-P1P2_02: sgRNA targeting HSPE1, GGAGACTGGCAGTCCGGCCC, SEQ ID NO: 67 (listed as DNA, chemistry not fully specified) records Perturb-seq pooled growth sgRNA counts, d10 of 3000 or higher. t
